test system: TGF-β-stimulated SMAD3 phosphorylation in BEAS-2B cells; assay: Cellular ALK5 potency assay, inhibition of TGF-β stimulated pSMAD3 formation in BEAS-2B cells; assay type: cell-based; conditions: Homo sapiens, inhibition of TGF-β (10 ng/mL) stimulated pSMAD3 formation, 1 hour compound incubation, read-out: BEAS2B pIC50 (converted)
measured_quantity: IC50

Request: Reported IC50 for TGF-β-stimulated SMAD3 phosphorylation in BEAS-2B cells, given Fc1ccc(Cl)cc1-c1n[nH]cc1-c1ccc2ncc(N3CCC(N4CCCC4)CC3)cc2n1 [Compound 1-44] ?
Result: 25.1 to 158 nM

Request: // fetch TGF-β-stimulated SMAD3 phosphorylation in BEAS-2B cells IC50 for Fc1ccc(-c2n[nH]cc2-c2ccc3ncc(C4=CCNC4)cc3n2)cc1F [Compound 8-20]
Result: 25.1 to 158 nM

Request: Recorded IC50 for COC(=O)c1cnc2ccc(-c3[nH]nnc3-c3ccccc3F)nc2c1 [Compound 12-1] with TGF-β-stimulated SMAD3 phosphorylation in BEAS-2B cells, please?
Result: 200 to 1260 nM

Request: GET /values?readout=IC50&system=TGF-β-stimulated SMAD3 phosphorylation in BEAS-2B cells&item= Fc1cc(F)c(-c2n[nH]cc2-c2ccc3ncc(-c4cnc5n4CCN5)cc3n2)cc1Cl [Compound 6-54]
Result: 25.1 to 158 nM

Request: IC50, test system TGF-β-stimulated SMAD3 phosphorylation in BEAS-2B cells, entry Fc1cc(F)c(-c2n[nH]cc2-c2ccc3ncc(-c4ncc5n4CCN5)cc3n2)cc1Cl [Compound 6-65]
Result: 200 to 1260 nM

Request: Lookup: IC50 / TGF-β-stimulated SMAD3 phosphorylation in BEAS-2B cells / Fc1ccc(Cl)cc1-c1n[nH]cc1-c1ccc2ncc(-c3cn[nH]c3)cc2c1 [Compound 16-2]
Result: ≤ 20 nM

Request: What IC50 appears in the records for this molecule with TGF-β-stimulated SMAD3 phosphorylation in BEAS-2B cells? CC(C)N1CCN(CCNc2cnc3ccc(-c4c[nH]nc4-c4cc(Cl)ccc4F)cc3c2)CC1 [Compound 16-5]
Result: 25.1 to 158 nM

Request: Item: CNCCn1cc(-c2cnc3ccc(-c4c[nH]nc4-c4cc(Cl)ccc4F)nc3c2)nn1 [Compound 1-131] Test system: TGF-β-stimulated SMAD3 phosphorylation in BEAS-2B cells Read-out: IC50 Value: ?
Result: ≤ 20 nM
